Property: PPARγ; scope: individual compounds
- target desc: hPPARγ (Homo sapiens, UniProt P37231)
- Construct: expressed in transfected cells; host or cells: HEK-293
- Sequence (P37231 238-503 limits assumed): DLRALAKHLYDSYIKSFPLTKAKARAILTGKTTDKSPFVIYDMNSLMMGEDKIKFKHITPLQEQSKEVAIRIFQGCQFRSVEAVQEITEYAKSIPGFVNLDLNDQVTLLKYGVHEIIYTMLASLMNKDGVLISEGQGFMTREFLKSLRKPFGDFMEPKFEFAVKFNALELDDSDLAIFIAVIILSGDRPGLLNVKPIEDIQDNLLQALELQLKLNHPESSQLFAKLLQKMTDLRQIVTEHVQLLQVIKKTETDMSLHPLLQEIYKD
- method description: Determination of hPPARγ activity (GAL4 fusion luciferase reporter in HEK-293 cells)
- Type: cell-based
- measurement parameters: compound concentration 1 μM
measurement kind: PPARγ

INSERT INTO measurements (compound, measurement_kind, observed) VALUES
  ('CCOC(Cc1ccc(NCCCN2CCOc3ccccc32)cc1)C(=O)O (centres unmarked)', 'PPARγ', 3.0),
  ('CCOC(Cc1ccc(NCCCN2CCSc3ccccc32)cc1)C(=O)O (centres unmarked)', 'PPARγ', 3.5),
  ('CCOC(Cc1ccc(NCc2ccc(OCCCN3CCOc4ccccc43)cc2)cc1)C(=O)O (centres unmarked)', 'PPARγ', 4.4),
  ('CCCCCCCN(CC(=O)N1CCOc2ccccc21)Cc1ccc(CC(OCC)C(=O)O)cc1 (centres unmarked)', 'PPARγ', 6.2),
  ('CCOC(Cc1ccc(NCCCN2CCOc3cc(F)ccc32)cc1)C(=O)O (centres unmarked)', 'PPARγ', 1.2);
